Target: biotinylated RBD of TcsL (Paeniclostridium sordellii, UniProt Q46342 1-2364)
Sequence (Q46342 whole entry): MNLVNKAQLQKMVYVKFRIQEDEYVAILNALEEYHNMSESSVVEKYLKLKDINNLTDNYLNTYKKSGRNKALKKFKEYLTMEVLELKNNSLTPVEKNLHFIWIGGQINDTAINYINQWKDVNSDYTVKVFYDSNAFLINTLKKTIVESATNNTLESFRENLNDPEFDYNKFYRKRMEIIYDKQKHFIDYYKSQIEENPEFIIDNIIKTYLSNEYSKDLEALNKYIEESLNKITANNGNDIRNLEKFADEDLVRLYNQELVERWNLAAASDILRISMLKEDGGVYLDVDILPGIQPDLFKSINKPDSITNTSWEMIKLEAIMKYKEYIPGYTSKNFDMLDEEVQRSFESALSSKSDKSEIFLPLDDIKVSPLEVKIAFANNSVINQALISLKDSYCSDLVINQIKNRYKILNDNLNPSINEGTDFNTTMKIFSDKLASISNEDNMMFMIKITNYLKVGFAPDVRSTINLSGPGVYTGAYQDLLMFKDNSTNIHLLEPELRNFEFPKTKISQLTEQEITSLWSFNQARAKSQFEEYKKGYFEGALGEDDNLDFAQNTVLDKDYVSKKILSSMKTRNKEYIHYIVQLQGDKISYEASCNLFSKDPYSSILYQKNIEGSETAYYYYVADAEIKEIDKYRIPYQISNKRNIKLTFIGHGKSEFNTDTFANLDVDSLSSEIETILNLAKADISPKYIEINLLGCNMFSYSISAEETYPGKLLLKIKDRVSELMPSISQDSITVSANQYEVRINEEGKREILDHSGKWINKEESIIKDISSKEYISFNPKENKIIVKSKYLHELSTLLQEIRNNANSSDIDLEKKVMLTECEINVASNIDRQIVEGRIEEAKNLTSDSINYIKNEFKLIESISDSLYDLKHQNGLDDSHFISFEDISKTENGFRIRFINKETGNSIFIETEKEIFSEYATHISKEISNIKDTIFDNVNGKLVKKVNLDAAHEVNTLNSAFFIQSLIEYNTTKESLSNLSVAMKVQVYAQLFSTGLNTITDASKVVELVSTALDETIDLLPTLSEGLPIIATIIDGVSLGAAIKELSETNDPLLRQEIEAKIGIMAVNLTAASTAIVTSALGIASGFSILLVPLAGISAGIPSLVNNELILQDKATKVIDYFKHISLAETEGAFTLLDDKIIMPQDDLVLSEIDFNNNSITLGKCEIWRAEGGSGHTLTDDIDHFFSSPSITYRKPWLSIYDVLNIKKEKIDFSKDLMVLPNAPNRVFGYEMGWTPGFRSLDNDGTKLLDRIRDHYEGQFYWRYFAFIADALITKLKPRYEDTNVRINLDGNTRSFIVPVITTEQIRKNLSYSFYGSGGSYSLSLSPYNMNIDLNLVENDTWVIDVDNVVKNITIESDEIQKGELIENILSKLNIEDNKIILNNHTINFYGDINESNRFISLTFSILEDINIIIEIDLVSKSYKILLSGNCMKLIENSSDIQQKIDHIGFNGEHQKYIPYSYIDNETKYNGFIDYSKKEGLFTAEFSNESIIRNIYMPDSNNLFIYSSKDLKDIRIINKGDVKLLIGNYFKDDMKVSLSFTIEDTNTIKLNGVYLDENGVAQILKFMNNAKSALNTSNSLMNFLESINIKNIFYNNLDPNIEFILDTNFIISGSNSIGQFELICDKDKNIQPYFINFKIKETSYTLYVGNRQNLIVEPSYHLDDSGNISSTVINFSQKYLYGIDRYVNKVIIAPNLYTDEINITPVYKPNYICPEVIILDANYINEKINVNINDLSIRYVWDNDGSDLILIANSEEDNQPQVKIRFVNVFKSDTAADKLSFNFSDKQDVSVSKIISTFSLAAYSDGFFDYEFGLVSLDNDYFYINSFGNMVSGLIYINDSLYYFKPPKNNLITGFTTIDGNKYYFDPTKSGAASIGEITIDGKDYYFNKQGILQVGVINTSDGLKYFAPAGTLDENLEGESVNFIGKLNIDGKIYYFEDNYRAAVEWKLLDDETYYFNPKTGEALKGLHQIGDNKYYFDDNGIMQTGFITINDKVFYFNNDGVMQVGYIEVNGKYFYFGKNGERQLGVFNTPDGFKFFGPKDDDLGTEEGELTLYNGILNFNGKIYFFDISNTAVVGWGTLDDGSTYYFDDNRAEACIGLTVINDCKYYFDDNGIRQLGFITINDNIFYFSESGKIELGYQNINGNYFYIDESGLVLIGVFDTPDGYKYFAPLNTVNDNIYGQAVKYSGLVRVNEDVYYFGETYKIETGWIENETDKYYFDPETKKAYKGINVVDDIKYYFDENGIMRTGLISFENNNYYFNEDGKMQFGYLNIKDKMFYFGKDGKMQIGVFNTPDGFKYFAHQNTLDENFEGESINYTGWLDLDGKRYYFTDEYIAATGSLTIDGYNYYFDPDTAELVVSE
Test: SPR
Conditions: both partners purified
pKd: −log10 of the molar value.
measured-endpoint: pKd

                                     binder  test_value
0  F4 (designed binder) NEELIKEIKKLLKEGKPASEILELLKKAGKEEIAKEAEKAALSSYDMTKAAAEEAIKKLK        8.37
